# assay_text: BET inhibitor-based combinations targeting novel dependencies in MECOM-rearranged (r) AML: HNT-34 cell line (AID 2202234); note: nearly all actives have a fitted effect of over 35% in size
# reported_conditions: HNT-34 AML viability, CellTiter-Glo luminescence, 48 h; series mostly up to 46 µM
Inconclusive results are not listed. The source made the active and inactive calls. Calls come from the whole dose curve; as a rule, active = well fitted inhibition curve with a large enough effect; inconclusive = small, poorly fitted or top-dose-only effect; inactive = no such curve, though single readings can be large or run the other way.
Outcome codes: y (active), n (inactive)

[[record]]
compound = "O=C(O)CNC(=O)C1C(=O)N(C2CCCCC2)C(=O)N(C2CCCCC2)C1=O"
class = "n"

[[record]]
compound = "CCOP(=O)(OCC)C(C)NC(=O)N(CCCl)N=O (configuration not stated)"
class = "n"

[[record]]
compound = "CO[C@H]1CCC(O[C@H]2C[C@H]([C@]3(C)CC[C@]4(C[C@H](O)[C@@H](C)[C@@H]([C@@H](C)/C=C(\\C)C(=O)[C@H](C)C[C@H](C)C(=O)O)O4)O3)O[C@]3(O[C@@H]([C@H]4O[C@@](O)(CO)[C@H](C)C[C@@H]4C)C[C@@H]3C)[C@@H]2C)O[C@@H]1C (some centres not stated)"
class = "y"

[[record]]
compound = "C[C@@H]1C[C@@H]([C@H](O)CC2CC(=O)NC(=O)C2)C(=O)[C@@H](C)C1"
class = "y"

[[record]]
compound = "CC(C)[C@]12O[C@H]1[C@@H]1O[C@]13[C@]1(O[C@H]1C[C@H]1C4=C(CC[C@@]13C)C(=O)OC4)[C@@H]2O"
class = "y"

[[record]]
compound = "CCOC(=O)Nc1ccc(NCc2ccc(F)cc2)cc1N"
class = "n"

[[record]]
compound = "C[C@]12COC(=O)C[C@@H]1CC[C@@H]1[C@@H]2CC[C@@]2(C)[C@H]1CC[C@]2(C)O"
class = "n"


---

# system_under_test: Cellular tumor antigen p53 (Homo sapiens) (UniProt P04637)
# Sequence (P04637 whole entry, looked up): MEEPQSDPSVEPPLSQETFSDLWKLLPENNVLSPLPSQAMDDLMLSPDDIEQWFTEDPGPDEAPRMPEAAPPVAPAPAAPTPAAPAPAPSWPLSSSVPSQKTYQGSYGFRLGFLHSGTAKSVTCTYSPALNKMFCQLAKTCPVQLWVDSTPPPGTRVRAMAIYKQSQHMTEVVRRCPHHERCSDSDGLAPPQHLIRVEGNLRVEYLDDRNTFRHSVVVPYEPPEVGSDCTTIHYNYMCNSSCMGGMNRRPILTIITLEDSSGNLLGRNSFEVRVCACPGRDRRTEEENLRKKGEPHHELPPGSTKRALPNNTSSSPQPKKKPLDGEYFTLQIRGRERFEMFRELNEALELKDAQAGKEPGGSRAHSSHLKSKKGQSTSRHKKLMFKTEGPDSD
# assay_text: Primary qHTS for small molecule compounds that upregulate eGFP-tagged delta133p53alpha (in N-terminal) cells. (AID 2060322);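 note: cells pre-induced with doxycycline then dosed without doxycycline; nearly all actives have a fitted effect of over 75% in size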
# reported_conditions: NCI-H358 eGFP-delta133p53alpha fluorescence, 24 h; active compounds read high
Records with an inconclusive call do not appear.
Quick rule for you: activation at -20% or higher means met, lower means not met.

[[record]]
compound = "C[C@]12CC[C@H]3[C@@H](CC=C4C[C@@H](O)CC[C@@]43C)[C@@H]1CC[C@@H]2O"
class = "met"

[[record]]
compound = "C[C@@H]1CC2=CC(=O)CC[C@@H]2[C@H]2CC[C@@]3(C)[C@@H](CC[C@]3(C)O)[C@@H]21"
class = "met"

[[record]]
compound = "CC1(C)C(C=C(Cl)Cl)C1C(=O)OC(C#N)c1cccc(Oc2ccccc2)c1 (centres undefined)"
class = "not met"

[[record]]
compound = "CC1CCCC(O)CC(=O)Cc2cc(O)cc(O)c2C(=O)O1 (centres undefined)"
class = "met"

[[record]]
compound = "c1ccc2sc(C3(N4CCCCC4)CCCCC3)cc2c1"
class = "met"

[[record]]
compound = "CC(C)[C@@H](CN1CC[C@@](C)(c2cccc(O)c2)[C@@H](C)C1)NC(=O)[C@H]1Cc2ccc(O)cc2CN1"
class = "met"

[[record]]
compound = "C=CCN1C[C@@H](C)N([C@H](c2ccc(C(=O)N(CC)CC)cc2)c2cccc(OC)c2)C[C@@H]1C"
class = "not met"

[[record]]
compound = "C#CC1(O)CCC2C3CCC4=CC(=O)CCC4=C3C=CC21C (centres undefined)"
class = "met"

[[record]]
compound = "COc1ccc(CNC(=O)/C=C/c2ccc3[nH]cc(CCN(C)C)c3c2)cc1"
class = "met"

